// note: IC50 values for Coagulation factor X (Homo sapiens) were reported in different studies

Item: CN1CCc2nc(C(=O)N[C@@H]3CCCCCC[C@H]3NC(=O)c3cc4cc(Cl)ccc4[nH]3)sc2C1 (relative stereo) Test system: Coagulation factor X (Homo sapiens) Read-out: IC50 Value: ? > 10 µM

Item: `COc1ccc(-c2ccc(C(=O)NCC(C)(C)C)cc2C(=O)O)c(C(=O)Nc2ccc3nc(N)[nH]c3c2)n1` Test system: Coagulation factor X (Homo sapiens) Read-out: IC50 Value: ? > 33 µM

Item: `Nc1nc(-c2ccccn2)nn1C(=O)c1ccccc1[N+](=O)[O-]` Test system: Coagulation factor X (Homo sapiens) Read-out: IC50 Value: ? > 5 µM

Item: `CC(C)Nc1ccc(-c2ccccc2)c(CC(=O)NCc2ccc(C(=N)N)cc2)c1O` Test system: Coagulation factor X (Homo sapiens) Read-out: IC50 Value: ? > 30 µM

Item: `Nc1noc2c(N3CC[C@@H](NC(=O)c4ccc(-n5cnnc5)cc4Cl)C3)ccc(Cl)c12` Test system: Coagulation factor X (Homo sapiens) Read-out: IC50 Value: ? > 30 µM

* * *

// note: IC50 values for Coagulation factor X (Homo sapiens, UniProt P00742) were reported in different studies
Don't forget the unit after the value.

Item: `NC(N)=NCCC[C@H](NC(=O)CN1CCN(S(=O)(=O)Cc2ccccc2)CC1=O)C(=O)c1nccs1` Test system: Coagulation factor X (Homo sapiens, UniProt P00742) Read-out: IC50 Value: ? 0.004 µM

Item: `COc1ccc2c(c1)C(=O)N(c1ccc(N3CCCCC3=O)cc1)CN2C(=O)c1ccccc1` Test system: Coagulation factor X (Homo sapiens, UniProt P00742) Read-out: IC50 Value: ? 546 µM

Item: `CCOC(=O)[C@]1(C)CCC[C@@]2(C)[C@@H]3CC[C@@]4(C)C[C@]3(CC[C@@H]21)C/C4=N\NC(=S)Nc1cccc(OC)c1` Test system: Coagulation factor X (Homo sapiens, UniProt P00742) Read-out: IC50 Value: ? 18.4 µM

Item: `CC(C)[C@H](NC(=O)[C@H](CC1CCCCC1)NC(=O)N[C@H](C)c1ccc(Br)cc1)C(=O)N[C@@H](CCCNC(=N)N)C(=O)c1nccs1` Test system: Coagulation factor X (Homo sapiens, UniProt P00742) Read-out: IC50 Value: ? 2.7 µM

* * *

// note: IC50 values for Coagulation factor X (Homo sapiens) were reported in different studies

Item: `CN(C)C(=N)c1csc(C(=O)Nc2ccc(Cl)cc2C(=O)Nc2ccc(Cl)cn2)c1` Test system: Coagulation factor X (Homo sapiens) Read-out: IC50 Value: ? 1 nM

Item: CC(C)[C@H](NC(=O)OCc1ccccc1)C(=O)NC(CC(=O)O)C(=O)CF (some centres undefined) Test system: Coagulation factor X (Homo sapiens) Read-out: IC50 Value: ? > 100000 nM

Item: `Cc1cc(C(=O)Nc2ccc(N3CCCN(C)CC3)cc2)n(-c2ccc3cc(Cl)ccc3c2)n1` Test system: Coagulation factor X (Homo sapiens) Read-out: IC50 Value: ? 22 nM

Item: `CCOC(=O)[C@]1(C)CCC[C@@]2(C)[C@@H]3CC[C@@]4(C)C[C@]3(CC[C@@H]21)C/C4=N\NC(=S)Nc1ccc(C#N)cc1` Test system: Coagulation factor X (Homo sapiens) Read-out: IC50 Value: ? 13600 nM
